B1: mRNA-splicing (parent)
chain: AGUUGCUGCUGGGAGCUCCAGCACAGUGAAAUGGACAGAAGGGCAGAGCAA

variants of: B1; test: exon inclusion enrichment index; higher = more inclusion; WT1 exon 5 minigene, HEK293
Give measured exon inclusion enrichment index for each item. Keep answers brief.
API doc: respond with a numeric literal and nothing else, no unit.

Q. Return reported exon inclusion enrichment index; argument: AGUUAUAUAUGGGAGCUCCAGCAGUGUGAAAUGGACAGAAGGGCAGAGCAA [G5A C6U U7A G8U C9A C24G A25U]
A. 0.0695

Q. // repeat for AGUUGACGACGGCGGCUCCAGCACAGUGAAAUGGACAGAAGGGCAGAGCAA [C6A U7C C9A U10C G13C A14G] and report
A. 2.83

Q. Another variant: AGUUAGGGAUGGGAGCUCGGGCACAGUGAAAUGGACAGAAGGGCAGAGCAA [G5A C6G U7G C9A C19G A20G]
A. 0.00172

Q. Next variant up: AUAUGACGACGGGAGCUCCAGCACAGUGAAAUGGACAGAAGGGCAGAGCAA [G2U U3A C6A U7C C9A U10C]
A. 4.33

Q. Same for AGUUCUUCUCGGGAGCUCCAGCACAGUGAAAUGGACAGAAGGGCAGGUCAA [G5C C6U G8C C9U U10C A47G G48U]
A. 0.205

Q. Further, for AGUUAUAUAUGGGAGCUCCAGCACAGUGUUAUGGACAGAAGGGCAGAGCAA [G5A C6U U7A G8U C9A A29U A30U] ?
A. 0.00971

Q. Request: AGUUCGCGCCGGGAGCUCCAGCCGAGUGAAAUGGACAGAAGGGCAGAGCAA [G5C C6G U7C U10C A23C C24G]
A. 5.29

Q. Same thing, different variant: AGUUGACGACGGGAGCUCCAGCACAGUGAAAUGGACAUGAGGGCAGAGCAA [C6A U7C C9A U10C G38U A39G]
A. 1.89

Q. Query AGUUGAAGAAGCGAGCUCCAGCACAGUGAAAUGGACAGAAGGGCAGAGCAA [C6A U7A C9A U10A G12C] next
A. 2.21

Q. // repeat for AGUUGACGCAGGGAGCUCCAGCACAGUGAAAUGGACAGAAGGGCAGAGCAA [C6A U7C U10A] and report
A. 0.41

Q. Check AGUUUCUUUUGGGAGCUCCAGCACAGUGAAGGGGACAGAAGGGCAGAGCAA [G5U G8U C9U A31G U32G] too.
A. 0.0767

Q. Same for AGUUUCUUUUGGGAGCUCCAGCACAGUGAAAUGGGCAGAAGGGCAGAGCAA [G5U G8U C9U A35G]
A. 0.0347

Q. # repeat for AGUUGAAGAAGGGAGCUCCAGCACAGUGAAAUGGACAGAAGGGCAAUGCAA [C6A U7A C9A U10A G46A A47U]
A. 0.928

Q. Try this variant too: AGUUACCACCGGGAGCUUCAGCACAGUGAAAUGGACAGAAGGGCAGAGCAA [G5A U7C G8A U10C C18U]
A. 1.67

Q. Please do the same for AGUUCUUCUCGGGAGCUCCAGCACAGUGAAAUGGACAGAAGCUCAGAGCAA [G5C C6U G8C C9U U10C G42C G43U] as well.
A. 2.87

Q. Ok, now AGUUCUUACAGGGAGCUCCAGCACAGUGAAAUGGACAGAAGGGCAGAGCAA [G5C C6U G8A U10A]
A. 0.0597

Q. Also AGUUCUUCUCGGGAGCUCCAGUGCAGUGAAAUGGACAGAAGGGCAGAGCAA [G5C C6U G8C C9U U10C C22U A23G] , if possible.
A. 2.04

Q. Now the variant AGUUCACACGAGGAGCUCCAGCACAGUGAAAUGGACAGAAGGGCAGAGCAA [G5C C6A U7C G8A U10G G11A]
A. 1.71

Q. Can you check AGUUAUGCAUGGGAGCUCCAGCACAGUGAAAUGGACAGAAGGGCAGAGCAA [G5A C6U U7G G8C C9A] next?
A. 0.407

Q. Request: AGUUAGGGAUGGGAGCUCCAGUUCAGUGAAAUGGACAGAAGGGCAGAGCAA [G5A C6G U7G C9A C22U A23U]
A. 0.00262

Q. Can you handle AGUUCUUCUCGGGAGCUCCAGCACAGUGAAGGGGACAGAAGGGCAGAGCAA [G5C C6U G8C C9U U10C A31G U32G] next?
A. 1.04

Q. Same lookup for AGUUCACACAGGGAGCUCCAGCACAGUGAAAUGGAUGGAAGGGCAGAGCAA [G5C C6A U7C G8A U10A C36U A37G] , please.
A. 0.111

Q. Would you mind doing AGUUGCUGCUGGGAGCUCCAGCACAGUGACUUGGACAGAAGGGCAGAGCAA [A30C A31U] as well?
A. 0.103

Q. Ok, now AGUUGACGACGGGAGCUCCAGAACAGUGAAAUGGACAGAAGGGCAGAGCAA [C6A U7C C9A U10C C22A]
A. 3.18

Q. Okay, and AGUUACCACCGGGAGCUCCAGCACAGUGAAAUGGACAGAAGGGCACUGCAA [G5A U7C G8A U10C G46C A47U] ?
A. 2.03

Q. Same question for AGUUAUAUAUGGGAGCUCCACUACAGUGAAAUGGACAGAAGGGCAGAGCAA [G5A C6U U7A G8U C9A G21C C22U] please.
A. 0.0665

Q. AGUUAGGGAUGGGAGCUGGAGCACAGUGAAAUGGACAGAAGGGCAGAGCAA [G5A C6G U7G C9A C18G C19G] , same question.
A. 0.0012

Q. Query AGUUCUUCCAGGGAGCUCCAGCACAGUGAAAUGGACAGAAGGGCAGAGCAA [G5C C6U G8C U10A] next
A. 0.518

Q. Another variant: AGUUACCACCGGGAGCUCCAGCACAGUGAACAGGACAGAAGGGCAGAGCAA [G5A U7C G8A U10C A31C U32A]
A. 1.81

Q. Repeat with AGUUCACACAGGGAGUGCCAGCACAGUGAAAUGGACAGAAGGGCAGAGCAA [G5C C6A U7C G8A U10A C16U U17G]
A. 0.0279

Q. What do you get for AGUUAUAUAUGGGAGCUCCAGCACAGUGCGAUGGACAGAAGGGCAGAGCAA [G5A C6U U7A G8U C9A A29C A30G] ?
A. 0.219

Q. // same read-out, input: AGUUUCUUUUGGGAGCUCCAGCACAGUGAAAUGGACAGAAGGGCACCGCAA [G5U G8U C9U G46C A47C]
A. 0.234

Q. // repeat for AGUUACCACCGGGAGCUCCAGCACAGUGAAAUGGACAGUAGGGCAGAGCAA [G5A U7C G8A U10C A39U] and report
A. 0.113

Q. Now give it for AGUUGCUGCUGGGAGCUCCAGCACAGUGAAAGUGACAGAAGGGCAGAGCAA [U32G G33U] too.
A. 0.0308

Q. Further, for AGUUUCUUUUGGGAACUCCAGCACAGUGAAAUGGACAGAAGGGCAGAGCAA [G5U G8U C9U G15A] ?
A. 0.0439

Q. Input AGUUAGCCAUGGGAGCUCCAGCACAGUGAAAUGGACAGAAGGGCAGAGCAA [G5A C6G U7C G8C C9A]
A. 0.0805

Q. Here is the next variant: AGUUGACGACGGGAGCUCCAGCACAGCGAAAUGGACAGAAGGGCAGAGCAA [C6A U7C C9A U10C U27C]
A. 5.2

Q. Again, but for AGUUAGGGAUGGGAGCUCCAGCACAGUGAAAUGGACAGAAGGGUUGAGCAA [G5A C6G U7G C9A C44U A45U]
A. 0.000761

Q. Also need AGUUGCUGCUGGGAGCUCCAGCACAGUGAAAUGGACAGAAGGGCGAAGCAA [A45G G46A] , thanks.
A. 0.84

Q. Same question for AGUUAGGGAUGGGAGCUCCAGCACAGUGAAAUGGACAGAUUGGCAGAGCAA [G5A C6G U7G C9A A40U G41U] please.
A. 0.000481

Q. Now the same for AGUUGCUGCUGGGAGCUCCGACACAGUGAAAUGGACAGAAGGGCAGAGCAA [A20G G21A]
A. 2.89

Q. Please answer likewise for AGUUUCUUUUGGGAGCUCCAGCACAGUGAAAUGGACAGAAGGGCUAAGCAA [G5U G8U C9U A45U G46A]
A. 0.0906

Q. // repeat for AGUUGACGACGGCUGCUCCAGCACAGUGAAAUGGACAGAAGGGCAGAGCAA [C6A U7C C9A U10C G13C A14U] and report
A. 2.57

Q. // same read-out, input: AGUUCACACAAGGAGCUCCAGCACAGUGAAAUGGACAGAAGGGCAGAGCAA [G5C C6A U7C G8A U10A G11A]
A. 0.832

Q. Repeat with AGUUUCUUUUGGGAGCUCCAGCACAGUGAAAUGGACAGAAGGGCAGUUCAA [G5U G8U C9U A47U G48U]
A. 0.143

Q. And AGGCCACACAGGGAGCUCCAGCACAGUGAAAUGGACAGAAGGGCAGAGCAA [U3G U4C G5C C6A U7C G8A U10A] ?
A. 0.139
